Consider the following IC50 values measured on 5-hydroxytryptamine receptor 6 (Homo sapiens, UniProt P50406).
Sequence (P50406 whole entry): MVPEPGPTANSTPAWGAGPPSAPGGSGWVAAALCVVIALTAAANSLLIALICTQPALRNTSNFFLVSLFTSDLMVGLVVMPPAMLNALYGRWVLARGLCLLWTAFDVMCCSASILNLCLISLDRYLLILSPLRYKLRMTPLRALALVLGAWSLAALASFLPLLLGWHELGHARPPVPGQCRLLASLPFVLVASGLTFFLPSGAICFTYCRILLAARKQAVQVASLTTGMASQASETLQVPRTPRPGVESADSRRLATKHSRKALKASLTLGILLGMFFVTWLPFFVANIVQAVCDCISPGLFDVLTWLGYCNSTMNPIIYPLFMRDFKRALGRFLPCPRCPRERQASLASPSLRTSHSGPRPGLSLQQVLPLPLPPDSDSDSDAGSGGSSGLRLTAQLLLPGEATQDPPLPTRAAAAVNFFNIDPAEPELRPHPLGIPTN
measure: IC50 (nM)

Solved entries (count: 3):
                                   molecule                               target_desc  reported_result
0  Cc1ccc(S(=O)(=O)c2nnn3c2nc(NCc2ccccc2Cl)c2ccccc23)cc1  5-hydroxytryptamine receptor 6 (Homo sapiens, UniProt P50406)              528
1  Cc1ccc(S(=O)(=O)c2nnn3c2nc(NCc2ccccc2C)c2ccccc23)cc1C  5-hydroxytryptamine receptor 6 (Homo sapiens, UniProt P50406)              602
2  CCc1ccc(S(=O)(=O)c2nnn3c2nc(NC2CCCCC2C)c2ccccc23)cc1 (stereo not drawn)  5-hydroxytryptamine receptor 6 (Homo sapiens, UniProt P50406)              572

[A] COCCOc1nc2c(S(=O)(=O)c3ccccc3)nnn2c2ccccc12
[B] Cc1cccc(Nc2nc3c(S(=O)(=O)c4ccc(Br)cc4)nnn3c3ccccc23)c1C
[C] O=S(=O)(c1ccccc1)c1nnn2c1nc(NC1CCCCC1)c1ccccc12
[D] CCN(Cc1ccccc1)c1nc2c(S(=O)(=O)c3ccccc3)nnn2c2ccccc12
Exercise: Descending sort on IC50 required. Reply format: the labels, ordered as requested.
Solution: A, B, D, C

###

# target desc: 5-hydroxytryptamine receptor 6 (Homo sapiens, UniProt P50406)
# method notes: Radioligand Binding Assay
measure: Ki (nM)

In [3]: df
Out[3]:
                                   compound  measure  reported_result
0  CN(Cc1ccccc1)c1nc2c(S(=O)(=O)c3ccccc3)nnn2c2ccccc12       Ki             7.65

[P] CC1CCC(Nc2nc3c(S(=O)(=O)c4ccccc4)nnn3c3ccccc23)CC1 (stereo not given)
[Q] O=S(=O)(c1ccccc1)c1nnn2c1nc(NCC1CCCO1)c1ccccc12 (stereo not given)
[R] CCC(C)Nc1nc2c(S(=O)(=O)c3ccccc3)nnn2c2ccccc12 (stereo not given)
[S] O=S(=O)(c1ccccc1)c1nnn2c1nc(NCc1ccco1)c1ccccc12
Exercise: Hey, can you sort those compounds up there by Ki, smallest first? Reply format: the labels, ordered as requested.
Solution: S, R, Q, P

###

Consider the following IC50 values measured on 5-hydroxytryptamine receptor 6 (Homo sapiens, UniProt P50406).
measure: IC50 (nM)

[a] O=S(=O)(c1ccccc1)c1nnn2c1ncc1ccccc12
[b] O=S(=O)(c1ccccc1)c1nnn2c1nc(NCC1CCCO1)c1cc(Cl)ccc12 (centres undefined)
Exercise: Between a and b , whose measured IC50 reads higher? Use the label to indicate which entry you chose.
Solution: a
(a: 5740 nM, b: 1800 nM)

All values here come from BindingDB's records for doi:10.1021/cc1000049.
